# measuredOn: MCL-1 (Homo sapiens (Human), UniProt Q07820, K194A/K197A/R201A)
# Sequence (Q07820 whole entry, looked up, stated change not applied): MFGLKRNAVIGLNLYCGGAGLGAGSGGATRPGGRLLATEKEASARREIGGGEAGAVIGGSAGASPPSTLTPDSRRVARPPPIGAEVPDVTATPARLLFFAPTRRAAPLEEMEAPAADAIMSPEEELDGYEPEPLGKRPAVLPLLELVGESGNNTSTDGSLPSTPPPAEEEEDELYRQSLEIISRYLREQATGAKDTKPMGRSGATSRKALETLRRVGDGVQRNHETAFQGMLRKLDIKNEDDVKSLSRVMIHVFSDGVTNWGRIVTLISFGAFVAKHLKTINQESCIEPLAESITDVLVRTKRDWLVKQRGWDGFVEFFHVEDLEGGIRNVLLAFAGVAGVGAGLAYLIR
# testDetails: Protein-protein interaction assay MCL-1/Noxa BH3 peptide (MCL-1 assay, TR-FRET)
# Assay type: binding
# conditionSummary: MCL-1 Assay IC50 (median)
readout: pIC50
Please note pIC50 is a logarithmic value: minus log10 of concentration in mol/L. Answer with that number alone.

Below, 2 compounds whose answers are already recorded.
COCCC1OCCCCn2c(C(=O)O)c(CCCOc3cccc4ccccc34)c3ccc(Cl)c(c32)-c2c1nn(C)c2C (racemic) : 9.32
CCc1c2c(nn1C)C(C1CC1)OCCCCn1c(C(=O)O)c(CCCOc3cccc4cc(F)ccc34)c3ccc(Cl)c-2c31 (racemic) : 8.89

Switching to the query record.
Query :: GET /values?readout=pIC50&system=MCL-1 (Homo sapiens (Human), UniProt Q07820, K194A/K197A/R201A)&item= Cc1c2c(nn1C)C(CCN1CCOCC1)OCCCCn1c(C(=O)O)c(CCCOc3cccc4cc(F)ccc34)c3ccc(Cl)c-2c31 (single isomer, unassigned; enantiomer 2) [Example 18]
Result :: 7.38
